biological target: NK2 receptors (Cavia porcellus, UniProt Q64077); experiment: NK-2-receptor-antagonistic effectiveness in vivo in anaesthetised guinea pigs (NKA test stimulus: late hypotension, bronchoconstriction, colonic pressure); set-up: from tissue; host or cells: whole anaesthetised guinea pig (in vivo); species or system Pirbright-White guinea pigs; details: guinea pig, iv, read-out: ED50 iv after 1 min (cumulative) NK2 (broncho-constriction)
Sequence (Q64077 whole entry): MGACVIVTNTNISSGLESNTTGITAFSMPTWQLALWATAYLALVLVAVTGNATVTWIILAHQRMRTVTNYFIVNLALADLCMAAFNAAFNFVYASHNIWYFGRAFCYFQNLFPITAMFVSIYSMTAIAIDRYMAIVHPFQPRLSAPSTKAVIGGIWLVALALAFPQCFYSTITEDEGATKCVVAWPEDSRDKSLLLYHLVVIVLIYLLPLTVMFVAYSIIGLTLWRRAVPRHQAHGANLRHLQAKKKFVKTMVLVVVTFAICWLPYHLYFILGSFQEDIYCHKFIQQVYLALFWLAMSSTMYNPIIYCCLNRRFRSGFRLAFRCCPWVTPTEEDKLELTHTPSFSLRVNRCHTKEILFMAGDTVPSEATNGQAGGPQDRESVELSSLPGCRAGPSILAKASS
recorded-metric: ED50 (µmol/kg)

Record excerpt, results attached:
CN(C[C@@H](CCN1CCN([C@@H](c2cccs2)[C@H](O)CO)CC1)c1ccc(Cl)c(Cl)c1)C(=O)c1cc(C#N)cc2ccccc12 = 0.943
CN(C[C@@H](CCN1CCN(C(CO)(CO)c2ccco2)CC1)c1ccc(Cl)c(Cl)c1)C(=O)c1cc(C#N)cc2ccccc12 = 0.595
CN(C[C@@H](CCN1CCN([C@@H](c2ccccc2)[C@H](O)CO)CC1)c1ccc(Cl)c(Cl)c1)C(=O)c1cc(C#N)cc2ccccc12 = 0.725

I = CN(C[C@@H](CCN1CCN([C@@H](c2ccsc2)[C@H]2COC(=O)O2)CC1)c1ccc(Cl)c(Cl)c1)C(=O)c1cc(C#N)cc2ccccc12
II = CN(C[C@@H](CCN1CCN([C@@H](c2ccsc2)[C@H](O)CO)CC1)c1ccc(Cl)c(Cl)c1)C(=O)c1cc(C#N)cc2ccccc12
III = CN(C[C@@H](CCN1CCN([C@@H](c2ccco2)[C@H](O)CO)CC1)c1ccc(Cl)c(Cl)c1)C(=O)c1cc(C#N)cc2ccccc12
IV = CN(C[C@@H](CCN1CCN([C@@H](c2ccco2)[C@H]2COC(=O)O2)CC1)c1ccc(Cl)c(Cl)c1)C(=O)c1cc(C#N)cc2ccccc12
Endpoint returns the given compounds ordered by ascending ED50. Lab note: final answer is the ordered label list.
I, IV, III, II

* * *

biological target: NK1 receptors (Cavia porcellus, UniProt P30547); assay: NK-1-receptor-antagonistic effectiveness in vivo in anaesthetised guinea pigs (NKA test stimulus, early hypotension); parameters: from tissue; host or cells: whole anaesthetised guinea pig (in vivo); species or system Pirbright-White guinea pigs; conditions: guinea pig, iv, read-out: ED50 iv after 1 min (cumulative) NK1 (early hypotension)
Sequence (P30547 whole entry): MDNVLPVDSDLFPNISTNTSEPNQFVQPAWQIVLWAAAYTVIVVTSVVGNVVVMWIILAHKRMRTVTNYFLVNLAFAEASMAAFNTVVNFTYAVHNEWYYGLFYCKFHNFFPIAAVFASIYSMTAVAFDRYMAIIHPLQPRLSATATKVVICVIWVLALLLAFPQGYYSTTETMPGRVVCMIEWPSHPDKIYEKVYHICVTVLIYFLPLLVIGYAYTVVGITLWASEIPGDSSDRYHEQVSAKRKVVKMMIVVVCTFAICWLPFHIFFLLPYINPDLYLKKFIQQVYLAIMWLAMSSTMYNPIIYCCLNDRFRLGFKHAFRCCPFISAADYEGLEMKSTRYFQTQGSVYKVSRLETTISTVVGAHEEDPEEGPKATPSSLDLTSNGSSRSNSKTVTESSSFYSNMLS
recorded-metric: ED50 (µmol/kg)

The examples below pair each entry with its known result.
CN(C[C@@H](CCN1CCN([C@@H](c2ccccc2)[C@H](O)CO)CC1)c1ccc(Cl)c(Cl)c1)C(=O)c1cc(C#N)cc2ccccc12 = 0.029
CN(C[C@@H](CCN1CCN([C@@H](c2cccs2)[C@H](O)CO)CC1)c1ccc(Cl)c(Cl)c1)C(=O)c1cc(C#N)cc2ccccc12 = 0.099
CN(C[C@@H](CCN1CCN([C@@H](c2ccco2)[C@H]2COC(=O)O2)CC1)c1ccc(Cl)c(Cl)c1)C(=O)c1cc(C#N)cc2ccccc12 = 0.093

a = CN(C[C@@H](CCN1CCN([C@@H](c2ccsc2)[C@H](O)CO)CC1)c1ccc(Cl)c(Cl)c1)C(=O)c1cc(C#N)cc2ccccc12
b = CN(C[C@@H](CCN1CCN([C@@H](c2ccsc2)[C@H]2COC(=O)O2)CC1)c1ccc(Cl)c(Cl)c1)C(=O)c1cc(C#N)cc2ccccc12
Please tell me which of the two, a or b , has the higher reported ED50 value. Write the label of whichever entry you select.
a

* * *

biological target: NK1 receptors (Cavia porcellus, UniProt P30547); assay: Functional NK1 antagonism on isolated guinea pig aorta ring preparations (Substance P induced relaxation)
pEC50: −log10 of the molar value.
recorded-metric: pEC50

CN(C[C@@H](CCN1CCN([C@@H](c2ccco2)[C@H]2COC(=O)O2)CC1)c1ccc(Cl)c(Cl)c1)C(=O)c1cc(C#N)cc2ccccc12 = 8.90

1 = CN(C[C@@H](CCN1CCN([C@@H](c2ccco2)[C@H](O)CO)CC1)c1ccc(Cl)c(Cl)c1)C(=O)c1cc(C#N)cc2ccccc12
2 = CN(C[C@@H](CCN1CCN([C@@H](c2ccsc2)[C@H](O)[C@@H](O)[C@H](O)CO)CC1)c1ccc(Cl)c(Cl)c1)C(=O)c1cc(C#N)cc2ccccc12
Just tell me: smaller pEC50 value, 1 or 2 ? Field: selected label. Fill in the label of the entry you choose.
1
(1: 9.40, 2: 10.00)

* * *

target: cloned human NK1 receptors (Homo sapiens, UniProt P25103); construct: expressed in transfected cells; assay: Ca2+ measurements using FLIPR for NK1 activity in CHO cells; assay type: cell-based; details: substance P 10^-8 M as agonist; compound applied 7 min before; pA2 calculated from IC50
Sequence (P25103 whole entry): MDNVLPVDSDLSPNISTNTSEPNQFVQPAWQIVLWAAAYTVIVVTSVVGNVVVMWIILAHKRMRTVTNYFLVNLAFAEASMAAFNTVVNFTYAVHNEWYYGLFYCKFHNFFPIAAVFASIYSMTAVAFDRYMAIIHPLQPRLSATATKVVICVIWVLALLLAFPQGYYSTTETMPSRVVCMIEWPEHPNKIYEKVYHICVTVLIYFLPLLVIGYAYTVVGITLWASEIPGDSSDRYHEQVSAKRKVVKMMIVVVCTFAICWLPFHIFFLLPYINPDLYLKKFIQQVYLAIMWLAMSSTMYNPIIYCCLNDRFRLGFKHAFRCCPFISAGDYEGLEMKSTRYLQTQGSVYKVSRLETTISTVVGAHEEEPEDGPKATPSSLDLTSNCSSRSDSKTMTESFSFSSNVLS
Property: pA2 (NK1); scope: individual compounds

CN(CC(CCN1CCN(C(Cc2ccccc2)C(O)CO)CC1)c1ccc(Cl)c(Cl)c1)C(=O)c1cc(C#N)cc2ccccc12 (stereo not shown) = 8,1
CC(=O)OC[C@@H](OC(C)=O)[C@H](c1ccco1)N1CCN(CC[C@H](CN(C)C(=O)c2cc(C#N)cc3ccccc23)c2ccc(Cl)c(Cl)c2)CC1 = 9,2
CC(=O)OCC(O)C(Cc1ccccc1)N1CCN(CCC(CN(C)C(=O)c2cc(C#N)cc3ccccc23)c2ccc(Cl)c(Cl)c2)CC1 (stereo not shown) = 8,0

For `COc1ccc([C@@H]([C@H](O)CO)N2CCN(CC[C@H](CN(C)C(=O)c3cc(C#N)cc4ccccc34)c3ccc(Cl)c(Cl)c3)CC2)cc1` , what is its reported pA2 (NK1)?
9,3

* * *

biological target: human NK1 receptors (Homo sapiens, UniProt P25103); construct: expressed in transfected cells; host or cells: CHO cells (membrane preparation); experiment: Binding of the test substances to NK1 receptors in vitro ([3H]-Substance P displacement, CHO cell membranes); details: [3H]-Substance P as ligand; membranes of CHO cells expressing the human NK1 receptor; Ki calculated from IC50; read-out: pKi (NK1) (converted)
Sequence (P25103 whole entry): as the sequence (P25103 whole entry) above
recorded-metric: Ki (nM)

CN(C[C@@H](CCN1CCN([C@@H](c2ccco2)[C@H](O)[C@@H](O)[C@H](O)CO)CC1)c1ccc(Cl)c(Cl)c1)C(=O)c1cc(C#N)cc2ccccc12 = 3.16
CN(C[C@@H](CCN1CCN(C(c2ccco2)C(O)CO)CC1)c1ccc(Cl)c(Cl)c1)C(=O)c1cc(C#N)cc2ccccc12 (stereo partly drawn) = 5.01
CN(C[C@@H](CCN1CCN([C@@H](c2ccco2)[C@H](O)CO)CC1)c1ccc(Cl)c(Cl)c1)C(=O)c1cc(C#N)cc2ccccc12 = 3.98

* * *

molecular target: human NK2 receptors (Homo sapiens, UniProt P21452); construct: expressed in transfected cells; host or cells: CHO cells (membrane preparation); experiment: Binding of the test substances to NK2 receptors in vitro ([3H]-SR 48968 displacement, CHO cell membranes); settings: [3H]-SR 48968 as ligand; membranes of CHO cells expressing the human NK2 receptor; 90 min incubation; Ki calculated from IC50; read-out: pKi (NK2) (converted)
Sequence (P21452 whole entry): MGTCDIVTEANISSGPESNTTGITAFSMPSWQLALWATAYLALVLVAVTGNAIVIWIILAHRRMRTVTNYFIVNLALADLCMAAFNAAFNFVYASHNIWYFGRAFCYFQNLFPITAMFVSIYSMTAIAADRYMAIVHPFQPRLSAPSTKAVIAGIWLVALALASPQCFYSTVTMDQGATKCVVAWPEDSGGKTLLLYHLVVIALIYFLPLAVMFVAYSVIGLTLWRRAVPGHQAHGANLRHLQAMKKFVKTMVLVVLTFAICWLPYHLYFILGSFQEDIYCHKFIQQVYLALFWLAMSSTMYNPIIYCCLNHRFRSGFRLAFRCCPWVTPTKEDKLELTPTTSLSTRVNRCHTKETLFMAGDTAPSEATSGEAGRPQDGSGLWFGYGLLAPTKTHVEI
recorded-metric: Ki (µM)

Consider the reported Ki for these compounds:
CN(C[C@@H](CCN1CCN([C@@H](c2ccco2)[C@H](O)[C@@H](O)[C@H](O)CO)CC1)c1ccc(Cl)c(Cl)c1)C(=O)c1cc(C#N)cc2ccccc12 = 0.0794
CN(C[C@@H](CCN1CCN(C(CO)c2ccco2)CC1)c1ccc(Cl)c(Cl)c1)C(=O)c1cc(C#N)cc2ccccc12 (stereo partly drawn) [Compound 25] = 0.0398
CN(C[C@@H](CCN1CCN([C@@H](c2ccco2)[C@H](O)[C@H](O)[C@H](O)CO)CC1)c1ccc(Cl)c(Cl)c1)C(=O)c1cc(C#N)cc2ccccc12 = 0.0631
CN(C[C@@H](CCN1CCN(C(CO)c2ccco2)CC1)c1ccc(Cl)c(Cl)c1)C(=O)c1cc(C#N)cc2ccccc12 (stereo partly drawn) [Compound 28] = 0.0501
CN(C[C@@H](CCN1CCN([C@@H](c2cc3ccccc3o2)[C@H](O)CO)CC1)c1ccc(Cl)c(Cl)c1)C(=O)c1cc(C#N)cc2ccccc12 = 3.16

a = CN(C[C@@H](CCN1CCN([C@@H](c2ccoc2)[C@H](O)CO)CC1)c1ccc(Cl)c(Cl)c1)C(=O)c1cc(C#N)cc2ccccc12
b = CN(C[C@@H](CCN1CCN([C@@H](c2ccsc2)[C@H](O)[C@@H](O)[C@H](O)CO)CC1)c1ccc(Cl)c(Cl)c1)C(=O)c1cc(C#N)cc2ccccc12
# argmax over Ki for candidates a and b // caller expects the label of the chosen entry
a

A = CN(C[C@@H](CCN1CCN(C(CO)(CO)c2ccco2)CC1)c1ccc(Cl)c(Cl)c1)C(=O)c1cc(C#N)cc2ccccc12
B = CN(C[C@@H](CCN1CCN([C@@H](c2ccco2)[C@H]2COC(=O)O2)CC1)c1ccc(Cl)c(Cl)c1)C(=O)c1cc(C#N)cc2ccccc12
Which value of Ki is greater, the one for A or the one for B ? Write down the label attached to your selection.
A

P = CN(C[C@@H](CCN1CCN([C@@H](c2ccsc2)[C@H](O)CO)CC1)c1ccc(Cl)c(Cl)c1)C(=O)c1cc(C#N)cc2ccccc12
Q = CN(C[C@@H](CCN1CCN([C@@H](c2cccs2)[C@H](O)CO)CC1)c1ccc(Cl)c(Cl)c1)C(=O)c1cc(C#N)cc2ccccc12
R = CN(C[C@@H](CCN1CCN([C@@H](c2ccc(Cl)s2)[C@H](O)CO)CC1)c1ccc(Cl)c(Cl)c1)C(=O)c1cc(C#N)cc2ccccc12
S = CN(C[C@@H](CCN1CCN(C(c2ccco2)C(O)CO)CC1)c1ccc(Cl)c(Cl)c1)C(=O)c1cc(C#N)cc2ccccc12 (stereo partly drawn)
# rank by Ki, ascending (min first) Output spec: a listing of the labels in the requested order.
S, P, Q, R
(S: 0.0126 µM, P: 0.0316 µM, Q: 0.0631 µM, R: 0.158 µM)

Values compiled from patent EP1954678B1.
